# measurement-target: Cathepsin G (Homo sapiens, UniProt P08311); also: in other assays of this panel Not Active means under 50% inhibition at 10 µM
# Sequence (P08311 whole entry): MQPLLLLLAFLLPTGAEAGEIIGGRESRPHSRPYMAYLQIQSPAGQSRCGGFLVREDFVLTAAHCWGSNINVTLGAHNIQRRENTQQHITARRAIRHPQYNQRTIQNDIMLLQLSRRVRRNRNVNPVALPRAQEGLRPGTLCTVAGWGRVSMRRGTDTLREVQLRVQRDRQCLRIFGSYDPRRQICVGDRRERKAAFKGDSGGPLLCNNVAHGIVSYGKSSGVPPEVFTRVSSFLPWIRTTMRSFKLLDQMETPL
# Type: tissue-based
# measurement-setup: neutrophil
observable: Ki

// known answers, use as guide
Q. Answer with Ki of `GENTAMICIN` measured for Cathepsin G (Homo sapiens, UniProt P08311).
A. Not Active

Q. # assay system Cathepsin G (Homo sapiens, UniProt P08311): give Ki of MANGANESE CHLORIDE ANHYDROUS; also: in other assays of this panel Not Active means under 50% inhibition at 10 µM
A. Not Active

Q. State Ki on Cathepsin G (Homo sapiens, UniProt P08311). Entry: `GRAMICIDIN`
A. Not Active

Q. Report Ki under test system Cathepsin G (Homo sapiens, UniProt P08311) for SODIUM ORTHOVANAD . Also: in other assays of this panel Not Active means under 50% inhibition at 10 µM.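 Also: inhibition of Cathepsin G enzyme activity, tested on an AMC-conjugated peptide substrate.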
A. Not Active

Q. Look up and report measured Ki (Cathepsin G (Homo sapiens, UniProt P08311)) for the following substance: `AURANOFIN`
A. Not Active

---
Q. State the measured Ki (Cathepsin G (Homo sapiens, UniProt P08311)) of `NYSTATIN`
A. Not Active

Q. Output reported Ki of the substance GADOPENTETATE DIMEGLUMINE on Cathepsin G (Homo sapiens, UniProt P08311).
A. Not Active
